The measurements presented in this section are drawn from patent US12662489B2.

Tested system: MTHFD2 recombinant human enzyme (Homo sapiens, UniProt P13995)
Sequence (P13995 36-350): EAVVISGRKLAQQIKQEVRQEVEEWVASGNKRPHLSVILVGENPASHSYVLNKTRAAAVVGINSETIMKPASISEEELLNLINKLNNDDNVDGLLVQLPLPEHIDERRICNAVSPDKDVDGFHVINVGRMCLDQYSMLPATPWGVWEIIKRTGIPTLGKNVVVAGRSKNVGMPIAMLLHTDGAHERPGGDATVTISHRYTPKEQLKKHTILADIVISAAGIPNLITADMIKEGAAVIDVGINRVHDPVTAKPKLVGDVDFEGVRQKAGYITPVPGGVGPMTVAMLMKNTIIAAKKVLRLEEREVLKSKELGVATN
Procedure details: MTHFD2 inhibition assay (NAD(P)H-Glo luminescence)
Readout name: IC50

Check out these entries, answers already filled in.
INSERT INTO assay_data (smiles_text, tested_system, result) VALUES
  ('COC[C@H]1CN(c2ccc3c4c(c(=O)oc3c2C)CN(C(=O)c2ccc(C(=O)NS(=O)(=O)N(C)C(C)C)c(N3CCCC3)c2)CC4)CCN1C', 'MTHFD2 recombinant human enzyme (Homo sapiens, UniProt P13995)', '1 to 10 nM'),
  ('CCOc1cc(C(=O)N2CCc3c(c(=O)oc4c(C)c(N5CCN(C)[C@@H](COC)C5)cc(C)c34)C2)c(F)cc1C(=O)NS(=O)(=O)N1CC[C@H](F)C1', 'MTHFD2 recombinant human enzyme (Homo sapiens, UniProt P13995)', '1 to 10 nM'),
  ('COC[C@H]1CN(c2cc(C)c3c4c(c(=O)oc3c2C)CN(C(=O)c2ccc(C(=O)NS(=O)(=O)N(C)C)c(N3CCC3)c2)CC4)CCN1C', 'MTHFD2 recombinant human enzyme (Homo sapiens, UniProt P13995)', '1 to 10 nM'),
  ('COC[C@H]1CN(c2cc(C)c3c4c(c(=O)oc3c2C)CN(C(=O)c2ccc(C(=O)NS(=O)(=O)N3CCCC3)c(OCC(F)(F)F)c2F)CC4)CCN1C', 'MTHFD2 recombinant human enzyme (Homo sapiens, UniProt P13995)', '10 to 100 nM'),
  ('COC[C@H]1CN(c2cc(C)c3c4c(c(=O)oc3c2C)CN(C(=O)c2ccc(C(=O)NS(=O)(=O)N3CCCC3)cc2F)CC4)CCN1C', 'MTHFD2 recombinant human enzyme (Homo sapiens, UniProt P13995)', '10 to 100 nM');

With those in mind, consider the next compound.
Name the reported IC50 value associated with the compound `CCOC[C@H]1CN(c2ccc3c4c(c(=O)oc3c2C)CN(C(=O)c2ccc(C(=O)NS(=O)(=O)N3CCCC3)c(OC3CCC3)c2F)CC4)CCN1C`
10 to 100 nM
